- experimental.system: human full-length HSP90 (Homo sapiens, UniProt P08238)
- Construct: E. coli expressed human full-length HSP90 protein, purified >95%; made in house; host or cells: E. coli
- Sequence (P08238 whole entry): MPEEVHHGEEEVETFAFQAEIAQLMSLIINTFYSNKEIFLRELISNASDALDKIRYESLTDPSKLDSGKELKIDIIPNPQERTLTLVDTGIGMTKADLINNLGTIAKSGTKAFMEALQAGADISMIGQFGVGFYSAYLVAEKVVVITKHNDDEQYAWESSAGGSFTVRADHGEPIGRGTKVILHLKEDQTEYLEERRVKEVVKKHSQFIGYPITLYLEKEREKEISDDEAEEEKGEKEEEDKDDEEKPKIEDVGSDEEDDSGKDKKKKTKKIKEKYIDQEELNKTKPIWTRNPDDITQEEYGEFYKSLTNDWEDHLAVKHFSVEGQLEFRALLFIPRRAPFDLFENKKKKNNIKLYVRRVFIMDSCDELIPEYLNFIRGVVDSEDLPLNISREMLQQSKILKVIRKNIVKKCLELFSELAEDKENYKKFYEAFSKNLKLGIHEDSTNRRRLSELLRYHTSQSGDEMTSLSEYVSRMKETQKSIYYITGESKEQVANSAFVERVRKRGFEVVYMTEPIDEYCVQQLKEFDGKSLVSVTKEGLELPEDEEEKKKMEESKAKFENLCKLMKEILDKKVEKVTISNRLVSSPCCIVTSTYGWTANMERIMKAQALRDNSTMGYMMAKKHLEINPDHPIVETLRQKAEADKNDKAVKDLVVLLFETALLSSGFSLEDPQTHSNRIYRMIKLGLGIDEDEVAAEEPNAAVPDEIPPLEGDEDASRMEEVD
- assay.overview: Fluorescence polarization assay (competitive displacement of probe RBT0045864-FAM from HSP90)
- Assay type: binding
- run.conditions: fluorescence polarisation, E. coli expressed human full-length HSP90 200 nM, probe 80 nM; read-out: Hsp90 FP IC50
pIC50: −log10 of the molar value.
Listing: pIC50 of selected molecules

Here's what some known entries look like.
> print(dat)
                                test.smiles  quantity.kind  measured.value
1  CN(C)CCCNC(=O)c1sc2nc(N)c(C#N)c(-c3ccccc3)c2c1N          pIC50          < 5.00
2  COc1ccc(-c2c(C#N)c(N)nc3sc(C(N)=O)c(N)c23)cc1OC          pIC50          < 5.00
3  CNC(=O)c1sc2nc(N)c(C#N)c(-c3ccccc3)c2c1N          pIC50          > 5.00
4  CCNC(=O)c1sc2nc(N)c(C#N)c(-c3ccccc3)c2c1N          pIC50          > 5.00
5  COC(=O)c1sc2nc(N)c(C#N)c(-c3ccc(OC(C)C)cc3)c2c1N          pIC50          < 5.00
6  CN1CCN(CCCNC(=O)c2sc3nc(N)c(C#N)c(-c4ccccc4)c3c2N)CC1          pIC50          < 5.00

pIC50 recorded for this molecule, N#Cc1c(N)nc2sc(C(=O)NCCN)c(N)c2c1-c1ccccc1 , is < 5.00

pIC50 recorded for this molecule, N#Cc1c(N)nc2sc(C(N)=O)c(N)c2c1-c1ccc(Br)cc1 , is < 5.00

pIC50 recorded for this molecule, N#Cc1c(N)nc2sc(C(=O)NCCN3CCOCC3)c(N)c2c1-c1ccccc1 , is < 5.00

pIC50 recorded for this molecule, N#Cc1c(N)nc2sc(C(N)=O)c(N)c2c1-c1ccc(Cl)cc1 , is > 5.00

pIC50 recorded for this molecule, CN(C)CCNC(=O)c1sc2nc(N)c(C#N)c(-c3ccccc3)c2c1N , is < 5.00

pIC50 recorded for this molecule, Cc1ccccc1NC(=O)c1sc2nc(N)c(C#N)c(-c3ccc(C(C)C)cc3)c2c1N , is < 5.00

pIC50 recorded for this molecule, N#Cc1c(N)nc2sc(C(=O)NCC(N)=O)c(N)c2c1-c1ccccc1 , is > 5.00

pIC50 recorded for this molecule, N#Cc1c(N)nc2sc(C(=O)NCCCN3CCOCC3)c(N)c2c1-c1ccccc1 , is < 5.00

pIC50 recorded for this molecule, COc1cccc(NC(=O)c2sc3nc(N)c(C#N)c(-c4ccc(C(C)C)cc4)c3c2N)c1 , is < 5.00

pIC50 recorded for this molecule, CC(C)c1ccc(-c2c(C#N)c(N)nc3sc(C(N)=O)c(N)c23)cc1 , is > 5.00

pIC50 recorded for this molecule, CC(C)NC(=O)c1sc2nc(N)c(C#N)c(-c3ccccc3)c2c1N , is < 5.00

pIC50 recorded for this molecule, N#Cc1c(N)nc2sc(C(=O)NCc3ccccc3)c(N)c2c1-c1ccccc1 , is < 5.00
